Origin of measurements: the Human Domainome abundance scans (Beltran et al. 2025)

Would you kindly list abundance fitness for each of these variants?
B1: Protein S100-G, residues 1 to 79; numbered along this chain, P02633 (parent)
chain: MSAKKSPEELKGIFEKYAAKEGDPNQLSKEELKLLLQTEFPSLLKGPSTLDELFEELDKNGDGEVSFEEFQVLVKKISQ

# Variants of: B1
# assay_notes: abundance fitness (aPCA) (normalised: wild type 0, dead -1); higher = more abundant; growth selection in yeast, the domain comes from the species named
# condition_details: Bos taurus
Enter a number only.

Consider the variant shown here: MSAKKSPEELKGIFEKYAAKEGLPNQLSKEELKLLLQTEFPSLLKGPSTLDELFEELDKNGDGEVSFEEFQVLVKKISQ [D23L] What is its recorded abundance fitness?
-0.034

Param item: MSAKKSPEELKGIFEKYAAKEGDPNQLSKEELKLLLQTEFPSLLKGPSTLDELFERLDKNGDGEVSFEEFQVLVKKISQ [E56R]
-0.02

Param item: MSAKKSPEELKGIFEKYAAKEGDPNQLSKEELKLLLQTEFPSLLKGPSTLCELFEELDKNGDGEVSFEEFQVLVKKISQ [D51C]
0.011

Param item: MSAKKSPEELKGIFEKYAAKEGYPNQLSKEELKLLLQTEFPSLLKGPSTLDELFEELDKNGDGEVSFEEFQVLVKKISQ [D23Y]
-0.081

Param item: MSAKKSPEELKGIFEKYAAKAGDPNQLSKEELKLLLQTEFPSLLKGPSTLDELFEELDKNGDGEVSFEEFQVLVKKISQ [E21A]
0.003

Param item: MSAKKSPEELKGIFEKYAAKEGDPNQLSKEELKLLLQTEFPSLLKGPSTLDELFEELDKNGDGEVSGEEFQVLVKKISQ [F67G]
-0.175

Param item: MSAKKSPEELKGIFEKYAAKEGDPNQLSKEELKLLLQTEFPSLLKGPSTLDELFEELDKNGDGEVSFEEFPVLVKKISQ [Q71P]
-0.25

Param item: MSAKKSPEELKGIFEKYAAKEGDPNQLSKEELKLLLQTEFPSLLKGPSTLDELFEELDKNGTGEVSFEEFQVLVKKISQ [D62T]
-0.044

Param item: MSAKKSPEELKGIFEKYAAKEGDPNQLSKEELKLLEQTEFPSLLKGPSTLDELFEELDKNGDGEVSFEEFQVLVKKISQ [L36E]
-1.37

Param item: MSAKKSPEELKGIFEKYAAKEGDPNQLSKEELKLLLQTEFPSLLKGPSTLDELFEELDKNGDGEVSFEEFQVLVKKISS [Q79S]
0.041

Param item: MSAKKSPEELKGIFEKYAAKEGDPNQLSKEELKLDLQTEFPSLLKGPSTLDELFEELDKNGDGEVSFEEFQVLVKKISQ [L35D]
-1.44

Param item: MSAKKSPEELKMIFEKYAAKEGDPNQLSKEELKLLLQTEFPSLLKGPSTLDELFEELDKNGDGEVSFEEFQVLVKKISQ [G12M]
-0.002

Param item: MSAKKSPEEQKGIFEKYAAKEGDPNQLSKEELKLLLQTEFPSLLKGPSTLDELFEELDKNGDGEVSFEEFQVLVKKISQ [L10Q]
-0.104

Param item: MSAKKSPEELKGIFEKYAAKEGDPNQLSKEELKILLQTEFPSLLKGPSTLDELFEELDKNGDGEVSFEEFQVLVKKISQ [L34I]
0.018

Param item: MSAKKSPEELKGIFEKYAAKEGDPNQLSKEELKLLLQTEFPSLLKGPSTLDELFDELDKNGDGEVSFEEFQVLVKKISQ [E55D]
0.033

Param item: MSAKKSPEELKGIEEKYAAKEGDPNQLSKEELKLLLQTEFPSLLKGPSTLDELFEELDKNGDGEVSFEEFQVLVKKISQ [F14E]
-1.32

Param item: MSAKKSPEELKGIFEDYAAKEGDPNQLSKEELKLLLQTEFPSLLKGPSTLDELFEELDKNGDGEVSFEEFQVLVKKISQ [K16D]
-0.18

Param item: MSAKKSPEELKGIFEKYAAKEGDPNQLSKEELKLLLQTEFPSLLKGPSTLDELFEELDNNGDGEVSFEEFQVLVKKISQ [K59N]
0.009

Param item: MSAKKSPEELKGIFEKYAAKEGDPNQLSKEELKLLLQTEFPSLLKGPSTLDELFEELDKNGDGSVSFEEFQVLVKKISQ [E64S]
0.002

Param item: MSAKKSPEELKGIFEKYAAKEGDPNQLSKEELKLLLQTEFPSLLKGPSTLDELFEELDKNGDGEVSFEEFSVLVKKISQ [Q71S]
0.017

Param item: MSAKKSPEELKGIFEKYAAKEGDPNQLSKEELKLLLQTEFPSLLKGPSGLDELFEELDKNGDGEVSFEEFQVLVKKISQ [T49G]
-0.043

Param item: MSAKKSPEELKGIFEKYAAKEGDPNQLSKEELKLLLQTEFPSLLKGPSTLDELFEELDKNGDGEVSFEEFQVLVKKIMQ [S78M]
-0.049
